# Target under test: AgNbp2
# Procedure text: SPOT peptide array binding signal intensity (averaged, normalized) (arbitrary units (background-subtracted, floor 0; scale differs between SH3 domains)); higher = stronger binding of the SH3 domain to the peptide
// values below are reported SPOT peptide array binding signal intensity

Reference set, count: 2
Binder: WTQRRGPLVVYAEDN
Data value: ≤ 0
//
Binder: ISPPASPPPEFDFSK
Data value: ≤ 0

Let's switch to this binder now.
Record LASNSPPVYPKRIRH . Reported SPOT peptide array binding signal intensity: ≤ 0
